// data source = patent US4605614A

Reported Selectivity PL, absorbance (O.D.) at 645 nm values for the following compounds.
molecular target: Plasmin (PL) (Sus scrofa, UniProt P06867); assay type: biochemical, Pig; settings: TABLE 4, CHA substrates; So = 0.54; pH 7.4; 37° C., 10 minutes; 0.32 CU/ml
Sequence (P06867 97-809): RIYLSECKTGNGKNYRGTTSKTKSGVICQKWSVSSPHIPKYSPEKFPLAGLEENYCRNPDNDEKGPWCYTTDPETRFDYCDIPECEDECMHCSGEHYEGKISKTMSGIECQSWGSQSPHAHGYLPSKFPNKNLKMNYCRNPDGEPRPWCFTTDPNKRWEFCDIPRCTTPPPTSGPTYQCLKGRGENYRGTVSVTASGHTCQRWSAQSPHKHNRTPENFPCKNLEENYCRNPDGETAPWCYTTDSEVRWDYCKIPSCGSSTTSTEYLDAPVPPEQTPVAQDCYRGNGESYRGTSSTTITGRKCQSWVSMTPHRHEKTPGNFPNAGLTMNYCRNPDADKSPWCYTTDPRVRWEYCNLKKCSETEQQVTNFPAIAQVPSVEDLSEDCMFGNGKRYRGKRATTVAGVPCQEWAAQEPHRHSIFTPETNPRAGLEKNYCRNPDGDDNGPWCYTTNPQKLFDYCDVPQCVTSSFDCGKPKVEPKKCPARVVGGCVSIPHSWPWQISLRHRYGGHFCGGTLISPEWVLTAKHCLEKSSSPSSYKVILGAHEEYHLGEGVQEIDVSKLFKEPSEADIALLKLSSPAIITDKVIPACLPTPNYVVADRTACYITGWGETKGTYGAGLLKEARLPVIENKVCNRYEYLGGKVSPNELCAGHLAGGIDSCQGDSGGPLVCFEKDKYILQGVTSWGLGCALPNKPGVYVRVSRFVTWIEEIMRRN
Outcome measure: Selectivity PL, absorbance (O.D.) at 645 nm

INSERT INTO measurements (compound, recorded_result) VALUES
  ('Cc1ccc(S(=O)(=O)Oc2ccc(C[C@@H](N)C(=O)N[C@@H](Cc3ccccc3)C(=O)N[C@@H](CCCCN)C(=O)Nc3ccc(O)c(C(=O)O)c3)cc2)cc1 [NPC-11, HD-Tyr(Tos)PheLysCHA.2HCl]', 0.277),
  ('Cc1ccc(C(=O)NCCCC[C@@H](N)C(=O)N[C@@H](Cc2ccccc2)C(=O)N[C@@H](CCCCN)C(=O)Nc2ccc(O)c(C(=O)O)c2)cc1 [NPC-6, HD-Lys(Toc)PheLysCHA.2HCl]', 0.147),
  ('Cc1ccc(S(=O)(=O)NCCCC[C@@H](N)C(=O)N[C@@H](Cc2ccccc2)C(=O)N[C@@H](CCCCN)C(=O)Nc2ccc(O)c(C(=O)O)c2)cc1 [NPC-7, 2HCl.H-D-Lys(ToS)-L-Phe-L-Lys-CHA]', 0.420),
  ('CC(C)[C@@H](N)C(=O)N[C@@H](Cc1ccccc1)C(=O)N[C@@H](CCCCN)C(=O)Nc1ccc(O)c(C(=O)O)c1 [NPC-2, HD-ValPheLysCHA.2HCl]', 0.090),
  ('NCCCC[C@H](NC(=O)[C@H](Cc1ccccc1)NC(=O)[C@H](N)CC(=O)OC1CCCCC1)C(=O)Nc1ccc(O)c(C(=O)O)c1', 0.213),
  ('CCCC(=O)NCCCC[C@@H](N)C(=O)N[C@@H](Cc1ccccc1)C(=O)N[C@@H](CCCCN)C(=O)Nc1ccc(O)c(C(=O)O)c1', 0.118),
  ('Cc1ccc(CCNC(=O)CC[C@@H](N)C(=O)N[C@@H](Cc2ccccc2)C(=O)N[C@@H](CCCCN)C(=O)Nc2ccc(O)c(C(=O)O)c2)cc1', 0.279),
  ('Cc1ccc(S(=O)(=O)NCCCC[C@H](N)C(=O)N[C@@H](Cc2ccccc2)C(=O)N[C@@H](CCCCN)C(=O)Nc2ccc(O)c(C(=O)O)c2)cc1 [NPC-5, HL-Lys(Tos)PheLysCHA.2HCl]', 0.051),
  ('CC(C)OC(=O)C[C@@H](N)C(=O)N[C@@H](Cc1ccccc1)C(=O)N[C@@H](CCCCN)C(=O)Nc1ccc(O)c(C(=O)O)c1', 0.093),
  ('NCCCC[C@H](NC(=O)[C@H](Cc1ccccc1)NC(=O)[C@H](N)CCCCNC(=O)c1ccccc1)C(=O)Nc1ccc(O)c(C(=O)O)c1', 0.417),
  ('NCCCC[C@H](NC(=O)[C@H](Cc1ccccc1)NC(=O)[C@H](N)CCCCNS(=O)(=O)c1ccccc1)C(=O)Nc1ccc(O)c(C(=O)O)c1', 0.480),
  ('CC(=O)NCCCC[C@@H](N)C(=O)N[C@@H](Cc1ccccc1)C(=O)N[C@@H](CCCCN)C(=O)Nc1ccc(O)c(C(=O)O)c1 [NPC-4, HD-Lys(AC)PheLysCHA.2HCl]', 0.144),
  ('NCCCC[C@@H](N)C(=O)N[C@@H](Cc1ccccc1)C(=O)N[C@@H](CCCCN)C(=O)Nc1ccc(O)c(C(=O)O)c1', 0.096),
  ('NCCCC[C@H](NC(=O)[C@H](Cc1ccccc1)NC(=O)[C@H](N)CCCCNC(=O)OCc1ccccc1)C(=O)Nc1ccc(O)c(C(=O)O)c1', 0.467),
  ('NCCCC[C@H](NC(=O)[C@H](Cc1ccccc1)NC(=O)[C@H](N)CCC(=O)NCCc1ccccc1)C(=O)Nc1ccc(O)c(C(=O)O)c1', 0.223),
  ('NCCCC[C@H](NC(=O)[C@H](Cc1ccccc1)NC(=O)[C@H](N)CCCCNS(=O)(=O)c1ccc2ccccc2c1)C(=O)Nc1ccc(O)c(C(=O)O)c1 [NPC-8, HD-Lys(NaS)PheLysCHA.2HCl]', 0.498),
  ('NCCCC[C@H](NC(=O)[C@H](Cc1ccccc1)NC(=O)[C@H](N)CCCCNC(=O)c1ccc2ccccc2c1)C(=O)Nc1ccc(O)c(C(=O)O)c1 [NPC-9, HD-Lys(NaC)PheLysCHA.2HCl]', 0.120),
  ('Cc1ccc(S(=O)(=O)NCCC[C@@H](N)C(=O)N[C@@H](Cc2ccccc2)C(=O)N[C@@H](CCCCN)C(=O)Nc2ccc(O)c(C(=O)O)c2)cc1', 0.392),
  ('NCCCC[C@H](NC(=O)[C@H](Cc1ccccc1)NC(=O)[C@H](N)CCCCNC(=O)Cc1ccccc1)C(=O)Nc1ccc(O)c(C(=O)O)c1', 0.325),
  ('Cc1ccc(S(=O)(=O)NCCCC[C@@H](N)C(=O)N[C@@H](CC(C)C)C(=O)N[C@@H](CCCCN)C(=O)Nc2ccc(O)c(C(=O)O)c2)cc1', 0.051),
  ('Cc1cc(C)c(S(=O)(=O)NCCCC[C@@H](N)C(=O)N[C@@H](Cc2ccccc2)C(=O)N[C@@H](CCCCN)C(=O)Nc2ccc(O)c(C(=O)O)c2)c(C)c1 [NPC-10, HD-Lys(Mst)PheLysCHA.2HCl]', 0.344),
  ('Cc1ccc(S(=O)(=O)Oc2ccc(C[C@@H](N)C(=O)N[C@@H](CC(C)C)C(=O)N[C@@H](CCCCN)C(=O)Nc3ccc(O)c(C(=O)O)c3)cc2)cc1 [NPC-13, HD-Tyr(Tos)LeuLysCHA.2HCl]', 0.041);
